Molecular target: CDK7/Cyclin H/MAT1 complex (Homo sapiens, UniProt P50613)
Sequence (P50613 whole entry): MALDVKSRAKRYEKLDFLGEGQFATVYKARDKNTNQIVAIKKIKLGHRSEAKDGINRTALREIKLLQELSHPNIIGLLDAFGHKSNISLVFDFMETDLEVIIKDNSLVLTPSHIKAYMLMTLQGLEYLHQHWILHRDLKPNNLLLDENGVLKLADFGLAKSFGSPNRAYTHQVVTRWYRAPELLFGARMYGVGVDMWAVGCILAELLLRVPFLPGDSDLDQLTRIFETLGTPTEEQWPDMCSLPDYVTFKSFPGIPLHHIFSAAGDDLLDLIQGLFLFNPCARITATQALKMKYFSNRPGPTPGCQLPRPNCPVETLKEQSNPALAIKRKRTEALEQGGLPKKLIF
Sequence (P51946 whole entry partner): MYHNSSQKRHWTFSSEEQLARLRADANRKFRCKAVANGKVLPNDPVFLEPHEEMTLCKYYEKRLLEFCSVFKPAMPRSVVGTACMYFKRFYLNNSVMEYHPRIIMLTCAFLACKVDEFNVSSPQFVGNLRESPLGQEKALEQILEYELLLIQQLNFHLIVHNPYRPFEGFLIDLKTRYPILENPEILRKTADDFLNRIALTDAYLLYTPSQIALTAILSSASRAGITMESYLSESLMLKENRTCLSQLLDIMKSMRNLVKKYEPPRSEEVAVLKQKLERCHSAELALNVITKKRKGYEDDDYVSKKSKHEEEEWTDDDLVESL
Sequence (P51948 whole entry partner): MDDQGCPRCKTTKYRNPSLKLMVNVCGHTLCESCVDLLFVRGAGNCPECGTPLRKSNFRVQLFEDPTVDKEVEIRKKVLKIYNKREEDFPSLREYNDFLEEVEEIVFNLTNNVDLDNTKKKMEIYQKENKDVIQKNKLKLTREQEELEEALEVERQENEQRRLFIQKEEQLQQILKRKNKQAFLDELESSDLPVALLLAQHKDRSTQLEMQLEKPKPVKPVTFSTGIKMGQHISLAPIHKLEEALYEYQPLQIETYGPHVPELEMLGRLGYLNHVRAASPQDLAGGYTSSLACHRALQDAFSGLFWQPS
Assay: CDK7 kinase inhibition assay (Caliper/LabChip EZ Reader)
Conditions: CDK7/Cyclin H/MAT1 6 nM, ATP 2 mM, 35 min at 27° C.
In this section we review reported IC50 values for a set of compounds.

Short answer for CCP(=O)(CC)c1ccc2c(-c3nc(NC4CCCNC4)ncc3C(F)(F)F)c[nH]c2c1 (stereo not shown) [Compound 379] : IC50 was 20 to 200 nM

Entry CC(=O)c1cccc2c(-c3nc(NC4CCCNC4)ncc3Cl)c[nH]c12 (stereo not shown) [Compound 142] , IC50 reported as < 20 nM

Reported IC50 for Cc1[nH]ncc1-c1cccc2c(-c3nc(N[C@@H]4CCCNC4)ncc3C(F)(F)F)c[nH]c12 [Compound 175] was < 20 nM

====

Biological target: CDK7/Cyclin H/MAT1 complex (Homo sapiens)
Assay: CDK7 kinase inhibition assay (Caliper/LabChip EZ Reader)
Settings: CDK7/Cyclin H/MAT1 6 nM, ATP 2 mM, 35 min at 27° C.
Procedure: Compounds of the invention were assayed for inhibition of CDK7, CDK9, CDK12, and CDK2 activity at Biortus Biosciences (Jiangyin, Jiangsu Province, P.R. of China) using kinase assays for each CDK developed with a Caliper/LabChip EZ Reader (Perkin Elmer, Waltham, Mass.). […]
measurementType: IC50

N#Cc1ccc2c(-c3nc(NC4CCCNC4)ncc3C(F)(F)F)c[nH]c2c1C#N (centres unmarked) ... < 0.02 µM

Short answer for CC(C)S(=O)(=O)c1ccc2c(-c3nc(NC4CCCNC4)ncc3C(F)(F)F)c[nH]c2c1 (centres unmarked) : IC50 was 0.02 to 0.2 µM

Looking up N#Cc1cnc(NC2CCCNC2)nc1-c1c[nH]c2ccccc12 (centres unmarked) , I found its IC50 recorded as < 0.02 µM

Reported IC50 of CC(C)C1CC[C@H](Nc2ncc(C(F)(F)F)c(-c3c[nH]c4ccccc34)n2)CN1 (some centres unmarked) : 0.02 to 0.2 µM

Sure, the documented IC50 for O=C(c1ccc2c(-c3nc(NC4CCCNC4)ncc3C(F)(F)F)c[nH]c2c1)N1CCCC1 (centres unmarked) is 0.02 to 0.2 µM

====

Target: CDK7/Cyclin H/MAT1 complex (Homo sapiens, UniProt P50613)
Assay: CDK7 kinase inhibition assay (Caliper/LabChip EZ Reader)
Conditions: CDK7/Cyclin H/MAT1 6 nM, ATP 2 mM, 35 min at 27° C.
In this section we review reported IC50 values for a set of compounds.

Some entries whose results are on file:
CC(=O)c1ccc2c(-c3nc(N[C@H]4CCCNC4)ncc3C(F)(F)F)c[nH]c2c1 ... < 20 nM
CCc1cnc(NC2CCCNC2)nc1-c1c[nH]c2nc(C#N)ccc12 (stereo not shown) ... < 20 nM
CC1CCNCC1Nc1ncc(Cl)c(-c2c[nH]c3ccccc23)n1 (stereo not shown) [Compound 125] ... 20 to 200 nM
N#Cc1ccc2c(-c3nc(N[C@@H]4CNCC[C@H]4F)ncc3C(F)(F)F)c[nH]c2c1 ... < 20 nM
CC1(C)CNC[C@@H](Nc2ncc(C(F)(F)F)c(-c3c[nH]c4cc(S(C)(=O)=O)ccc34)n2)C1 ... 20 to 200 nM

The reported IC50 of the compound O=C(c1ccc2c(-c3nc(NC4CCCNC4)ncc3C(F)(F)F)c[nH]c2c1)N1CCC(O)(C(F)(F)F)C1 (stereo not shown) [Compound 299] was < 20 nM

GET /value?item= N#Cc1cc(-c2ccc3c(-c4nc(NC5CCCNC5)ncc4C(F)(F)F)c[nH]c3c2)c[nH]1 (stereo not shown) &field=IC50 returns < 20 nM

For reference, reported IC50 for O=C(O)c1cccc2c(-c3nc(NC4CCCNC4)ncc3Cl)c[nH]c12 (stereo not shown) stands at 20 to 200 nM

The measured IC50 associated with `Clc1cnc(N[C@H]2CCCNC2)nc1-c1c[nH]c2c(N3CCOCC3)cccc12` reads 20 to 200 nM

// recorded IC50 for CNC(=O)c1ccc2c(-c3nc(NC4CCCNC4)ncc3C(F)(F)F)c[nH]c2n1 (stereo not shown) : < 20 nM

// recorded IC50 for N#Cc1cn(-c2ccc3c(-c4nc(NC5CCCNC5)ncc4C(F)(F)F)c[nH]c3c2)cn1 (stereo not shown) : < 20 nM

Please fill in: IC50 reported for `N#Cc1ccc2c(-c3nc(N[C@@H]4CCC5(CCC5)NC4)ncc3C(F)(F)F)c[nH]c2c1` = < 20 nM

# IC50 of FC1CCNCC1Nc1ncc(Cl)c(-c2c[nH]c3ccccc23)n1 (stereo not shown) = 20 to 200 nM

IC50 recorded for this compound, `CC1(O)CCN(C(=O)c2ccc3c(-c4nc(N[C@H]5CCCNC5)ncc4C(F)(F)F)c[nH]c3c2)CC1` , is < 20 nM

Summary for this compound, CCN1CCCC(Nc2ncc(C(F)(F)F)c(-c3c[nH]c4cc(C#N)ccc34)n2)C1 (stereo not shown) : IC50 is < 20 nM

compound FCCc1cnc(NC2CCCNC2)nc1-c1c[nH]c2ccccc12 (stereo not shown) , IC50 observed: 20 to 200 nM
